Assay: chemical genetic growth profiling, strain panel (AID 1159580);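 also: tested at 20 µM; growth read once vehicle control cultures reached saturation at 30 °C; lower values mean less growth of the strain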
Conditions: S. cerevisiae deletion strains, growth OD, locus YHR013C, strain ard1
Hit rate of the full screen: of about 5,500 compounds, about 2,000 (36%) were called active. Another 18% or so got no clear call; they are omitted. Rule as the data show it: active = normalized growth mostly below about 0.91 (no sharp cut-off); inconclusive = no clear call, values can overlap the other calls; inactive = mostly above about 0.92. This is one part of the list.
Output constraint: value belongs to active, inactive

Which outcome was assigned to CC1(C)S[C@@H]2C(N3C(=O)[C@@H](c4ccccc4)NC3(C)C)C(=O)N2[C@H]1C(=O)O (some centres not stated) in this test? inactive

Tell me the recorded outcome of this test for NCC(O)CC(=O)O (configuration not stated) . inactive

Lab log entry: Oc1ccc2c3c1OC1[C@@H](O)CC[C@@]4(O)[C@@H](C2)N(CC2CCC2)CC[C@]314 (some centres not stated) — outcome as called in the assay? inactive

Hi, sorry to bother you, what did the test record for `CCCc1nn(C)c2c(=O)[nH]c(-c3cc(S(=O)(=O)N4CCN(C)CC4)ccc3OCC)nc12` ? inactive

What was the test verdict on Cc1c(OCC(F)(F)F)ccnc1CS(=O)c1nc2ccccc2[nH]1 (configuration not stated) ? inactive

Please state the recorded outcome for this compound: `CCc1ccc2c(O)c3c(cc2c1C(=O)OC)C(=O)c1c(O)ccc(O)c1C3=O` inactive

Test call, this compound: `NCCCN` inactive

Tell me the assay call for CC(=O)O[C@@H]1CC2C(C)(CC[C@H](O)C2(C)C)C2CC[C@]3(C)C(=CC(=O)O[C@H]3c3ccoc3)C21C (some centres not stated) please. inactive

Outcome logged for CC(C)(C)NCC(O)COc1cccc2c1C[C@H](O)[C@H](O)C2 (some centres not stated) in this assay: inactive

Recorded test call requested for `COc1cc(C(=O)N2CCOCC2)cc(OC)c1OC` inactive

What did this assay record as the result for `CSc1nc(NC(C)C)nc(NC(C)C)n1` ? inactive

Per the assay record, what outcome was assigned to CC(=O)N1CCN(c2ccc(OCC3CO[C@](Cn4ccnc4)(c4ccc(Cl)cc4Cl)O3)cc2)CC1 (some centres not stated) ? active

In this assay, the call recorded for `CCCc1nc(C)c2c(=O)[nH]c(-c3cc(S(=O)(=O)N4CCN(CC)CC4)ccc3OCC)nn12` was what? inactive

// param item: `CCC(=O)NCC[C@@H]1CCc2ccc3c(c21)CCO3` ; yields the recorded call inactive

# lookup: test call for `C=CCSSCC=C` inactive

Identify the outcome logged in this assay for the compound shown: `CC(C)c1cccc(O)c(=O)c1` active

Fill in: this test's call for `CNC[C@H](O)c1cccc(O)c1` is ___ inactive

What call does the record list for `N#Cc1c(Cl)cccc1Cl` ? inactive

Please indicate how the test categorized C/C=C/CC(C)C(O)C1C(=O)NC(CC)C(=O)N(C)CC(=O)N(C)C(CC(C)C)C(=O)NC(C(C)C)C(=O)N(C)C(CC(C)C)C(=O)NC(C)C(=O)NC(C)C(=O)N(C)C(CC(C)C)C(=O)N(C)C(CC(C)C)C(=O)N(C)C(C(C)C)C(=O)N1C (configuration not stated) . inactive

GET /call?item= COC(=O)C(N)CS (configuration not stated) returns the recorded outcome of this test. inactive

Give the logged outcome of this assay for the following compound: `CC[C@@]1(O)C(=O)OCc2c1cc1n(c2=O)Cc2cc3ccccc3nc2-1` inactive

So what was the verdict on `COc1nc(NC(C)C)nc(NC(C)C)n1` in this test? inactive
